Values from paper PMC9543358

Test: Population pharmacokinetic model of cabotegravir plasma concentrations
Type: in vivo, human
Conditions: human, plasma, other: oral tablet and LA IM injection, modelled together, V2/F, apparent central compartment volume of distribution, base model; typical subject of 76.6 kg
metric: Vd/F (L)
Respond with the bare value in L.

Consider the molecule C[C@H]1CO[C@@H]2Cn3cc(C(=O)NCc4ccc(F)cc4F)c(=O)c(O)c3C(=O)N12 [CAB, Cabotegravir] and give its measured Vd/F.
5.5
